molecular target: α7-nAChR (Homo sapiens); test: Patch clamp of ACh-induced currents, HEK293 cells stably expressing nAChR α7/RIC3; assay type: cell-based; settings: peptide 200 nM, relative to currents induced by 9 μM ACh
Sequence (P36544 23-502): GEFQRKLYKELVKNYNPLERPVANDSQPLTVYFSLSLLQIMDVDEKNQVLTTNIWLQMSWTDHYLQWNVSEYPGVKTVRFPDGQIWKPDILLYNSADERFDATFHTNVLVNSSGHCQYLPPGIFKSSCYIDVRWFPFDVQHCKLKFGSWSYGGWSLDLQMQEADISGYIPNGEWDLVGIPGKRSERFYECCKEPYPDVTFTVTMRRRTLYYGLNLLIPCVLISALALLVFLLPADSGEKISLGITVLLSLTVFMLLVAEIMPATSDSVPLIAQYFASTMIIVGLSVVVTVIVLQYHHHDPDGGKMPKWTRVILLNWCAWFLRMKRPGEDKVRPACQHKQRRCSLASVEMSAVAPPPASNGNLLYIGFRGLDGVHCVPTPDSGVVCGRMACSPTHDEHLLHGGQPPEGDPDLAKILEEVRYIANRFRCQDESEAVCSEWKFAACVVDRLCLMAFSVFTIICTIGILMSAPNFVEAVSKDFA
Residues, ends and D or L forms follow the SMILES beside them.
Would you kindly list %Inhibition of α7-nAChR for each of these compounds?
Answer with a number only, understood to be in %.

Data request: Quick one: %Inhibition of α7-nAChR for CC(=O)N[C@H](C(=O)N[C@@H](CO)C(=O)N[C@@H](CCCNC(=N)N)C(=O)N[C@@H](CCCNC(=N)N)C(=O)N[C@@H](CCCNC(=N)N)C(N)=O)C(C)C [CN-105, Ac-VSRRR-NH2] (Ac-VSRRR-NH2) ?
Data returned: 61.4

Data request: Quick one: %Inhibition of α7-nAChR for CC(=O)N[C@@H](CCCNC(=N)N)C(=O)N[C@@H](CO)C(=O)N[C@@H](CCCCN)C(=O)N[C@@H](CCCNC(=N)N)C(=O)N[C@@H](CCCNC(=N)N)C(N)=O [Ac-RSKRR-NH2] (Ac-RSKRR-NH2) ?
Data returned: 9.3

Data request: Quick one: %Inhibition of α7-nAChR for CC(=O)N[C@@H](C)C(=O)N[C@@H](CO)C(=O)N[C@@H](CCCNC(=N)N)C(=O)N[C@@H](CCCNC(=N)N)C(=O)N[C@@H](CCCNC(=N)N)C(N)=O [Ac-ASRRR-NH2] (Ac-ASRRR-NH2) ?
Data returned: 7.4

Data request: Quick one: %Inhibition of α7-nAChR for CC(=O)N[C@H](C(=O)N[C@@H](CO)C(=O)N[C@@H](CCCCN)C(=O)N[C@@H](CCCCN)C(=O)N[C@@H](CCCNC(=N)N)C(N)=O)C(C)C [Ac-VSKKR-NH2] (Ac-VSKKR-NH2) ?
Data returned: 48.9

Data request: Quick one: %Inhibition of α7-nAChR for CSCC[C@H](NC(C)=O)C(=O)N[C@@H](CO)C(=O)N[C@@H](CCCNC(=N)N)C(=O)N[C@@H](CCCNC(=N)N)C(=O)N[C@@H](CCCNC(=N)N)C(N)=O [Ac-MSRRR-NH2] (Ac-MSRRR-NH2) ?
Data returned: 38.3

Data request: Quick one: %Inhibition of α7-nAChR for CC(=O)N[C@H](C(=O)N[C@@H](CS)C(=O)N[C@@H](CCCNC(=N)N)C(=O)N[C@@H](CCCNC(=N)N)C(=O)N[C@@H](CCCNC(=N)N)C(N)=O)C(C)C [Ac-VCRRR-NH2] (Ac-VCRRR-NH2) ?
Data returned: 5.9

====

experiment: in vivo; settings: both, monkey, iv, 0.1 mg/kg
Residues, ends and D or L forms follow the SMILES beside them.
Readout Name: Tmax (min)
Answer with a number only, understood to be in min.

Data request: Quick one: Tmax for CC(=O)N[C@H](C(=O)N[C@@H](CO)C(=O)N[C@@H](CCCNC(=N)N)C(=O)N[C@@H](CCCNC(=N)N)C(=O)N[C@@H](CCCNC(=N)N)C(N)=O)C(C)C [CN-105, Ac-VSRRR-NH2] (Ac-VSRRR-NH2) ?
Data returned: 30

====

experiment: in vivo; settings: both, SD, rat, iv, 0.3 mg/kg
Residues, ends and D or L forms follow the SMILES beside them.
Readout Name: Tmax

Data request: Quick one: Tmax for CC(=O)N[C@H](C(=O)N[C@@H](CO)C(=O)N[C@@H](CCCNC(=N)N)C(=O)N[C@@H](CCCNC(=N)N)C(=O)N[C@@H](CCCNC(=N)N)C(N)=O)C(C)C [CN-105, Ac-VSRRR-NH2] (Ac-VSRRR-NH2) ?
Data returned: 2 min
